System: human lung cancer A549 cells
Test: Cell viability
Format: cell-based
Details: read-out: EC50 cell degeneration; lung cancer A549 cells, resazurin reduction
pEC50: −log10 of the molar value.
measurement-kind: pEC50

{"compound": "CC(=O)c1cc2c(cc1C)C(C)(C)C(C)CC2(C)C (stereo not shown) [Tonalide]", "reported-result": 4.85}

====

Target: purified porcine liver PMPMEase (Sus scrofa)

{"entry-smiles": "CCCCC=O", "assay-system": "purified porcine liver PMPMEase (Sus scrofa)", "IC50": "> 1000 µM"}

====

Target: purified porcine liver PMPMEase (Sus scrofa)
Sequence (Q29550 19-566): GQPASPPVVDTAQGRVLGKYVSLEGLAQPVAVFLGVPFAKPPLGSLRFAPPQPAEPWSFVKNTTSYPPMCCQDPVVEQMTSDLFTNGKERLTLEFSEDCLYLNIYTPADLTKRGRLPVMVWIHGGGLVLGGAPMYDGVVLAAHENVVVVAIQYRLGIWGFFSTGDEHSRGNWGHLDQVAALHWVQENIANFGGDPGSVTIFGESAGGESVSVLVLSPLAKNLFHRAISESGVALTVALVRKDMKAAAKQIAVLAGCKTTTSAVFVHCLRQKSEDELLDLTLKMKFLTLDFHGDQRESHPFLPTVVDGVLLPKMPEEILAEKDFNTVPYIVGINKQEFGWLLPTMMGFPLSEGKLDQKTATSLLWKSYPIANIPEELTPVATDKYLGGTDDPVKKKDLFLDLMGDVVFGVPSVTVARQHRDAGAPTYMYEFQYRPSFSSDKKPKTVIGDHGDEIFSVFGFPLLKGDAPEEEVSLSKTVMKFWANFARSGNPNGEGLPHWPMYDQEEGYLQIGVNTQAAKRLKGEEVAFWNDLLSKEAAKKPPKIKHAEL
Assay: Inhibition of purified porcine liver PMPMEase
Format: biochemical
pKi: −log10 of the molar value.
measurement-kind: pKi

{"compound": "CC1COCc2cc3c(cc21)C(C)(C)C(C)C3(C)C (centres unmarked) [Galaxolide]", "assay-system": "purified porcine liver PMPMEase (Sus scrofa)", "measurement-kind": "pKi", "reported-result": 4.96}
{"compound": "CCCCC=O [Pentanal, pentanal]", "assay-system": "purified porcine liver PMPMEase (Sus scrofa)", "measurement-kind": "pKi", "reported-result": 3.76}

Origin of values: paper PMC3654042
